# Test system: MS2 coat protein
# Protocol summary: apparent KD of MS2 coat protein; higher = weaker reporter binding
# Experimental conditions: Eterna round: R107; input ligand: theophylline 2 mM
So I've got a bunch of sequences here, and I need their apparent KD of MS2 coat protein values.
Write your answer as a measured quantity: the number, then the unit.

Past entries and their recorded results:
sequence_code="UCGUGUGUUUCGGAUACCAGUGAAAUCGAUACAUGAGGAUCACCCAUGUGAGAGGAUGUACACCCUUGGCAGCUGUCUGUAUCGG [asczmullin]" metric_name="apparent KD of MS2 coat protein" experimental_result="43.8 nM"
sequence_code="ACGACGGCUGCGGCCGCCACUGUACAUGAGGAUCACCCAUGUGUAGUAAUUGGGACCCUGUGUUACAGGACCGGGUAGUUGAUUA [Orquteer]" metric_name="apparent KD of MS2 coat protein" experimental_result="47.1 nM"
sequence_code="AUGUACAUGACGGCCGCCACUACACUGAAAGUGGUCCAGAACAUGAGGAUCACCCAUGUAUCAAGUAGGACCGGGUCAUGUACAU [Tryp B Ex t5]" metric_name="apparent KD of MS2 coat protein" experimental_result="697 nM"
sequence_code="AUUCAUGGAAACAUGACAUACAUUACCGGUCGAGGACCGGUACGGCCGCCACUCGGUUGGUGGCACAUGAGGAUCACCCAUGUUA [SS Tryp A #11]" metric_name="apparent KD of MS2 coat protein" experimental_result="30 nM"

Items follow; give apparent KD of MS2 coat protein for each.
1. UUCAGACAUGAGGAUCACCCAUGUACUGAAGGAGCGGAUAAAUAUCCAGGUAGGUCGCAGUAUUGAGGGUCUACUUCCAGUCUUA [Rexeesqu]
2. CCCAGUUAGAUCAAAGGAAUUAUACUCGAAGGAGCGUCAUAGUAGGCAGGUAGGUCGCGAGACAUGAGGAUCACCCAUGUAGAGA [azqmullin]

10.4 nM
41 nM

====

# Tested on: MS2 coat protein
# Protocol summary: apparent KD of MS2 coat protein, switch ON state; designed switch direction (-1 OFF switch, 1 ON switch): 1; higher = weaker reporter binding
# Experimental conditions: FMN input: 0 or 200 uM; Eterna round: R93 (includes R88 designs)
Metric name: apparent KD of MS2 coat protein (nM)
Numbers only, in nM.

Past entries and their recorded results:
sequence_code="CGGAGACAUGAGGAUCACCCAUGUGAGAAGAGGCGAGGAUAUCGAAAGAAAGAAGAGAAAUGAGAAGGCGCGAGCC [salish99-SS1-081]" metric_name="apparent KD of MS2 coat protein" units_of_measure=nM experimental_result=36.2
sequence_code="UAUAAACAUGAGGAUCACCCAUGUAGAAAUAUGGGAGGAUAUACAAAGACGAAAGUCAAAGUAGAAGGCCUAAUAU [Mat - Same State 1 - Mod - D155]" metric_name="apparent KD of MS2 coat protein" units_of_measure=nM experimental_result=18.9

Continue with the next sequence.
Fill in the recorded apparent KD of MS2 coat protein for this sequence, with MS2 coat protein as test system: AAAUAGUGCCUGGAGGAUAUGUCGCAUGACACAUGAGGAUCACCCAUGUGGUAACACAGAGGGUGGCAGAAGGCUGGGUGCAAAC [Mod 4 of Pariah 6 (Round1) by Hyphema]
27.4

====

# System: MS2 coat protein
# Protocol summary: apparent KD of MS2 coat protein, switch ON state; designed switch direction (-1 OFF switch, 1 ON switch): -1; higher = weaker reporter binding
# Experimental conditions: FMN input: 0 or 200 uM; Eterna round: R93 (includes R88 designs)
Quick rule: apparent KD of MS2 coat protein of at least 30 nM means 1, below that means 0.

Example entries begin here.
sequence_code="AACUGACAUGAGGAUCACCCAUGUCAGGAUAUGAUUUGACGAAAUAAAAUAAGUCAUAUCAGAAGGGACAUGGG [Design 83: Sub-opt VB]" assigned_class=0
sequence_code="AACUGCGCAGGAUAUACAUGAGGAUCACCCAUGUAAAGAAAAGAAAGAUCCGAAGAAAGUAGAAGGGCGUGGAA [Variant 2 of Mod 1 of Ex3 sub 3, by Tesla's Dusciple Round 1]" assigned_class=1
sequence_code=AAAAAACAUGAGGAUCACCCAUGUGAGGAUAUCGGAAAAGGAAAAAAAAAAAAGAAGACGAGAAGGCACAAAGA assigned_class=0
sequence_code="AGUUGGCGAGGAUAUACAUGAGGAUCACCCAUGUGAGAGAAAAACUCGAAAGAGAAAAGUAGAAGGCGCUGACA [73%, Moding Norbert Elias, 6]" assigned_class=0
sequence_code="AGUAUGCGAGGAUAUACAUGAGGAUCACCCAUGUGAGAGAUAAAAGUGAGAAAGAAAUGUAGAAGGCGCGUACA [JL Lego Mod 22]" assigned_class=1
sequence_code="CAAAGGUGAGGAUAUACAUAACUAUGACGAAAGUCAUAAACACAUGAGGAUCACCCAUGUAGAAGGCACCACAA [e2]" assigned_class=1

Is apparent KD of MS2 coat protein at least 30 nM? Consider AGCUAGUCAGGAUAUACGAACAUGUCAAAAGACGUGAAGGGACAUGAGGAUCACCCAUGUAGAAGGGACUAGCA [WEB mod]
1

AACAAUACAGGAUAUACAUGAGGAUCACCCAUGUGAGAAUUAAGUGGCGUACCACAAGGUAGAAGGGUAAUGGA [Ruby 2] ?
0

AGCUAGUGAGGAUAUACGAACAUGUCAAAAGACGUGAAAAAACAUGAGGAUCACCCAUGUAGAAGGCACUAGCA [Mat - Exclusion 2 - JL-Eli mod - D56] ?
0

AUAGGCCUAGGAUAUACAUGAGGAUCACCCAUGUAAACAGAUAGAUCAAGGUAAACGAGUAGAAGGAGGAAUAA [JR_Exc003_Sub209] ?
0

AACAGUACAGGAUAUACAUGAGGAUCACCCAUGUAAAAAUAAAAGGGAAACUCAAAAAGUAGAAGGGUACUGGA [Moding Maslow revisited (73) 13] ?
1

AAGGGACAUGAGGAUCACCCAUGUCAGGAUAUGCUAUGGAAAUAAAAAAUAAAACAUAGCAGAAGGGACAAAAA [Mat - Exclusion 1 - Eli mod - D33] ?
1
